These data points were gathered from ChEMBL document CHEMBL4251741.

# ASSAY_METHOD_TEXT: Cytotoxicity against HEL cells assessed as morphological changes after 3 days by microscopic analysis
# Assay type: cell-based
# EXPERIMENTAL_PARAMETERS: human
MEASURED_ATTRIBUTE: MCC at 72 h

{"columns": ["COMPOUND", "RESULT"],
 "data": [
  ["Nc1nc2c(ncn2CCC(CO)CO)c(=O)[nH]1", "> 79 µM"]
]}

List reported MCC at 72 h for each of these compounds:
1. O=c1[nH]c(=O)n([C@H]2C[C@H](O)[C@@H](CO)O2)cc1/C=C/Br
2. Nc1nc2c(ncn2COC(CO)CO)c(=O)[nH]1
3. Nc1ccn(C[C@@H](CO)OCP(=O)(O)O)c(=O)n1
4. CCCCCOC(=O)CC(NP1(=O)COC(Cn2cnc3c(N)ncnc32)CO1)C(=O)OCCCCC (single isomer, unassigned)
5. Nc1nc2c(ncn2COCCO)c(=O)[nH]1

result:
1: > 30 µM; 2: > 39.2 µM; 3: > 71.6 µM; 4: > 18.5 µM; 5: > 88.8 µM

* * *

# ASSAY_METHOD_TEXT: Cytotoxicity against HEL cells assessed as reduction in cell viability after 3 days by coulter counting method
# Assay type: cell-based
# EXPERIMENTAL_PARAMETERS: human
MEASURED_ATTRIBUTE: CC50 at 72 h

Give CC50 at 72 h for each of the items listed below.
1. O=c1[nH]c(=O)n([C@H]2C[C@H](O)[C@@H](CO)O2)cc1/C=C/Br [BRIVUDINE]
2. Nc1ccn(C[C@@H](CO)OCP(=O)(O)O)c(=O)n1 [CIDOFOVIR]
3. Nc1nc2c(ncn2CCC(CO)CO)c(=O)[nH]1 [PENCICLOVIR]
4. Nc1nc2c(ncn2COC(CO)CO)c(=O)[nH]1 [GANCICLOVIR]

result:
1. > 300 µM
2. > 358 µM
3. > 395 µM
4. > 319 µM
